tested on: MS2 coat protein; assay: apparent KD of MS2 coat protein, switch OFF state (with FMN for OFF switches, without FMN for ON switches); designed switch direction (-1 OFF switch, 1 ON switch): -1; higher = weaker reporter binding; conditions: FMN input: 0 or 200 uM; Eterna round: R93 (includes R88 designs)
ASSAY_ENDPOINT: apparent KD of MS2 coat protein (nM)
Answer with a number only, understood to be in nM.

**Q:** Kindly state the measured apparent KD of MS2 coat protein obtained for AACAUGUCAGGAUAUGUAGUAAAAAGUGAUCCUCAUAAACUACAGAAGGGACAUGAGGAUCACCCAUGUAAAAA [Ex4: 930] with MS2 coat protein.
**A:** 21.3

**Q:** Kindly state the measured apparent KD of MS2 coat protein obtained for AACAGUACAGGAUAUACAUGAGGAUCACCCAUGUGAGAAUUAAGUGGAGUACCACAAAGUAGAAGGGUACUGGA [Mat - Exclusion 3 - JL mod - D4] with MS2 coat protein.
**A:** 202

**Q:** Kindly state the measured apparent KD of MS2 coat protein obtained for AAAAAGUGAGGAUAUUCGGAAGGGAAAGCGCAAACCCAACCGAAGAAGGCACAUGAGGAUCACCCAUGUGGAAG [Mat - Exaclusion 4 - Eli mod - D57] with MS2 coat protein.
**A:** 30.2

**Q:** Kindly state the measured apparent KD of MS2 coat protein obtained for AAAAGGUCAGGAUAUGCCCACCUGGUGGAAAAACCAGGUGGGCAGAAGGGACAUGAGGAUCACCCAUGUAAAAA [Excls4-Ii] with MS2 coat protein.
**A:** 78.2

**Q:** Kindly state the measured apparent KD of MS2 coat protein obtained for GGAAAACAUGAGGAUCACCCAUGUAAGGAUAUGCUAGGGAGGGAAAAAAUUUCGCCAGGCAGAAGGUACUAAAG [Janelle Amethyst 18 Mod 6 - Jieux - Exclusion 1] with MS2 coat protein.
**A:** 44.7

###

system: K4 kissing-loop RNA reporter; assay: apparent KD of K4 kissing-loop reporter; higher = weaker reporter binding; conditions: Eterna round: R107; input ligand: FMN 200 uM
ASSAY_ENDPOINT: apparent KD of K4 kissing-loop reporter (nM)
Answer with a number only, understood to be in nM.

Below: 4 sequences and their reported apparent KD of K4 kissing-loop reporter.
AAGUGAUGUUGUAGUGAUGUUGUGAUGUUGCAGGAUAUAUAGUGAUGUAGAAGGGUAAGUACUCAUGUUGUUAGUAAGUGAUGUU [bttutmullin]; 91.5
UCGGCGGAGUGAUGUUCCUAUGUCCAAGAUACCAGUCUAUGAACGGACCCUUGGCAGCUUCCAUUAGGUUACUAUUUAGACUCAU [theeternabot_exclusion_KL_Theo_A_10]; 190
AUUUGUUUAUGUGAUACCAGACUAAGCAGUGAUGUUGCUUUUAUUUUUGAAUUUUAAAUAGUCCCUUGGCAGCACUAUGUCUGUA [#05 K4 Theophylline B Same State]; 96.4
GCGCUUAAAUAAGGAUAUUACAGACUCAUCUACGAGUGAUGUUCGGUGCGCUGUGCACAGAGCCUGUAAGAAGGUAUAGCAUUGC [theeternabot_sameState_KL_FMN_B_41]; 1010

**Q:** What does the record list as apparent KD of K4 kissing-loop reporter for `CCUCACGUAGGACUAGUGAUGUUAGACUACCGAGGACCGGUACGGCCGCCACUCGUCGUACAAGAUAACCAUCUGCCAGUAUACA` ?
**A:** 122

**Q:** What does the record list as apparent KD of K4 kissing-loop reporter for GAGGUACAGGCGGCCGCCACUAGUGAUGUUAGUGAUGUUAGAUAAAGUAUAUAUCGGCGUGUAGAUAGGACCGGGCCUGAUGGAG [ssrykmullin] ?
**A:** 49

###

system: K4 kissing-loop RNA reporter; assay: apparent KD of K4 kissing-loop reporter; higher = weaker reporter binding; conditions: Eterna round: R107; input ligand: FMN 200 uM
ASSAY_ENDPOINT: apparent KD of K4 kissing-loop reporter (nM)
Answer with a number only, understood to be in nM.

Below: 6 sequences and their reported apparent KD of K4 kissing-loop reporter.
CUAUAAGUGCCGAGUGAUGUUCGGCCAAUACGAGGACCGGUACGGCCGCCACUCGGUCAGUGGGUGCCCACCGGGCAUGGCUGAC [Cecezaa]; 174
GGGCGCGGCGCGGCCGCCACUGCGCCUGGGUGCUCGCUGAGUGAUGUUCGUCGGCGGUUGGGUGGUAGGACCGGGUGCUGGCCGG [BDazzled - #13 SS Tryptophan B]; 654
CGGCCGUUAUGAGAUACCAGAGUGGCGACCAGUGAUGUUGGUCGACGCUUGCGGUCGUCUCUCCCUUGGCAGCUUAGUACGAAAG [Inisar]; 97.4
GCAACAUUGGGAGGAUAUCAUUCUGAGUGAUGUUCAGGGUUCAGCUAACGAAAGUUAGUUGUACCAUGAGAAGGUCUAAUGUUGC [Omei KL FMN B SS A v6]; 342
CGAUACGGAAAUACGUGUCUCUAUUCAGAAGGAGCGUGGUAGUACACAGGUAGGUCGCUGAAUUUUAAACUAGUGAUGUUAGUCU [JR_SSArginiA_Sub005]; 317
UUCGGCCUGACGGCCGCCACUUUGGGUAGUGAUGUUACCAACAUUCACCAGAUACAGGUUACUUCAAGGACCGGGUCAGACGGUG [theeternabot_exclusion_KL_Trp_B_45]; 104

**Q:** What does the record list as apparent KD of K4 kissing-loop reporter for CGCCGCAAGGCGAGCGCUCCCACUCCGGAAGGAGCGCCCGGAAGGGCAGGUAGGUCGCCGGAGUGAUGUUCCGGUGGAGGGCUCG [#2 Exclusion - Arginine A Attempt #13 (Inspired by Omei)] ?
**A:** 358

**Q:** What does the record list as apparent KD of K4 kissing-loop reporter for UGGUUUAGAAGUGAUGUUUCGAUAAGUGAUACCAGACAAAAGAAAGUCCCUUGGCAGCACAAUGAUGCCAAGGAAACGGCAUGAU [Same State Theophylline A GF 1] ?
**A:** 118

**Q:** What does the record list as apparent KD of K4 kissing-loop reporter for GUAUAUCGAACUGAUACCAGAGAAUAAAGCAGUGAUGUUGCAUAUAUAAAUAAGACUCGACUCCCUUGGCAGCGGGAAGAUAUAC [On purpose 1] ?
**A:** 170

**Q:** What does the record list as apparent KD of K4 kissing-loop reporter for GGCGUCUAAAAGUGCCUAGAGAGAAAGGAUACCAGCACCCGGCGGUGCCCUUGGCAGCCUAGCCCAGUGAUGUUGGGUCCUCUAA [Lasorian] ?
**A:** 380

**Q:** What does the record list as apparent KD of K4 kissing-loop reporter for UGUGUUUACCUGACUCAGUGAUGUUGAGAAGGAGCGUGCGAAAGCACAGGUAGGUCGCUCAACCUAAAAUUCAGGUGAGCACUAA [#SwitchBubble 11 #K4Early] ?
**A:** 366

**Q:** What does the record list as apparent KD of K4 kissing-loop reporter for CUUGAGACAUGAGUGAUGUUCAUGUCCGAAGGAGCGUGCGAAAGCACAGGUAGGUCGCGGACGUGAGUGAUGUUCAUGUGAGCGA [KL-XArg-A10 #analogue] ?
**A:** 236

**Q:** What does the record list as apparent KD of K4 kissing-loop reporter for CCGGCCCAGCCGGAUACCAGUGCGCCGCAGGGAACGGCGGGCCCAGAGUGAUGUUCGGGACACCCUUGGCAGCCGCCUGGGUCGC [#2 Same State - Theophylline B Attempt #27 (HarryS)] ?
**A:** 234

**Q:** What does the record list as apparent KD of K4 kissing-loop reporter for UAAGAAUAAGUAGCAGUGAUGUUGCUACUACGAGGACCGGUACGGCCGCCACUCGAGCCGUACCAUAACAUCACUGAGGUACGAA [(H1)-(H2)-(Trp1)-(Trp2)-(T)'-(H)'-(T)''] ?
**A:** 231

###

tested on: K4 kissing-loop RNA reporter; assay: apparent KD of K4 kissing-loop reporter; higher = weaker reporter binding; conditions: Eterna round: R107; input ligand: none;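 further: bound reporter read as fluorescence of individual clusters on recovered sequencing chips by microscopy, with normalized cluster intensities fitted with a binding model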
ASSAY_ENDPOINT: apparent KD of K4 kissing-loop reporter (nM)
Answer with a number only, understood to be in nM.

GGCAUGGUGACGCGGCUGCCAUACGCUUGGGAGGAUAUGUUUCGUGACAGAAGGCCCAGUGAUGUUGGGUCUGUUCAAAAGGACU [Arisus]; 170
GGAAUGCUGUAAGGAUAUCUCGGACGGUUACUCCGUUUCUCGCGUGUAAGAAUCUGAGUGAUGUUUAGAGAAGGUACGCUGGUUA [theeternabot_exclusion_KL_FMN_B_21]; 240
GCAGUCAAUCAACCACGAAAGUGGAUGGAUACCAGCCCGAAACCGGGCCCUUGGCAGCCAGUGAUGUUGGAAGACUGCUUUAAAA [#SwitchBubble 15 #K4Late]; 607
GCGCUUAAAUAAGGAUAUUACAGACUCAUCUACGAGUGAUGUUCGGUGCGCUGUGCACAGAGCCUGUAAGAAGGUAUAGCAUUGC [theeternabot_sameState_KL_FMN_B_41]; 1180
UGGAGUUGACGAAAAGUCAACUCCUGAGAAGGAGCGGACGAAAGUCCAGGUAGGUCGCUCACUACCAGUGAUGUUGGUACUUAAA [#OpenEnded 4]; 198
GGGAACUCUUACGAUACCAGCCGGAGUGAUGUUCCGCGCUUGGACGUAGUAACCCGCACCGGCCCUUGGCAGCGUGGAUCUUAUA [Esbedi]; 73.9
GGAUCCACCAGUGAUGUUGGAGAAAACUCUAAGGAUAUGACGAAAGUCAGAAGGUGGUAGACUGGACAAAGUCCGGUAGGAUCCA [FmnA10 U30+A78]; 617
AGCAAAACCAAAGGAUAUUGGCAGUCGAUGUACCAUGUUCCCGUAGCAGGUUGAGUGAUGUUUAAGCAAGAAGGUUGGCGUUUGG [theeternabot_exclusion_KL_FMN_B_12]; 436
GCUCAGGAGUGAUGUUCCAAGUGGUGUUAACGAGGACCGGUACGGCCGCCACUCGAUACGGCCGGACCGUAGGAUAAACUAGAGC [Same State - Tryptophan A (Freestyle 11)]; 196
UAAUCACUCGAACUUGCAACUCGAGUGGAACGAGGACCGGUACGGCCGCCACUCGAUAACUUGCAGUGAUGUUGCAAGUAAGAAU [(T)''-(K)'-(T)'-(T1)-(T2)-(K1)-(K2)_Design8]; 411

Turning now to a further record.
**Q:** What does the record list as apparent KD of K4 kissing-loop reporter for GGAUCCACCAGUGAUGUUGGAGAAAACUCGAAGGAUAUGACGAAAGUCAGAAGGUCGUAGACUGGACAAAGUCCGGUCGGAUCCA [FmnA 19 G30+C56] ?
**A:** 539
